B1: library; a variant is named by its letters at N, in order (parent)
chain: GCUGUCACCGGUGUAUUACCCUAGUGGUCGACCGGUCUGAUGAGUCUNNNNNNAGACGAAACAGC

Variants of: B1
Assay: normalized RNA/DNA level without ligand (relative to sTRSVctl = 100) (log10 (% of sTRSVctl)); ligand: hypoxanthine (xanthine aptamer); higher = less ribozyme self-cleavage, higher mRNA level
Details: HEK293T, reporter: mCherry (pCS4076), ligand present: no
readout: normalized RNA/DNA level without ligand (log10)
Please reply with the number alone, leaving off any unit.

alteration	quantitative.result
ACGCUU	1.5
CUUACG	1.87
GGUACC	1.92
GCCUAA	1.83
AAGCCA	1.76

// query normalized RNA/DNA level without ligand (log10) value for entry `GGUACU` 1.93

Then this variant: `CCAAUC` 1.94

Further, for `CUGGAG` ? 1.62

Also `UGAAUG` ? 1.75
